# Tested on: J774 murine macrophages
# Protocol Details: Non-specific cytotoxicity against J774 murine macrophages (MTT/formazan)
# Type: cell-based
# Condition Description: 400 μM compound, 48 hours, MTT
Please go through the items and note down their PC J774 macrophages (%) (percentage of non-specific cytotoxicity).

Find PC J774 macrophages (%) (percentage of non-specific cytotoxicity) for CN(C/C=C/C#CC(C)(C)C)Cc1cccc2ccccc12 [Terbinafine, reference compound] on J774 murine macrophages and write it down. 60.0%

Find PC J774 macrophages (%) (percentage of non-specific cytotoxicity) for NC1=NS(=O)(=O)N(Cc2ccc(Cl)cc2)c2nc(-c3ccccc3F)[nH]c21 [drawing 21] on J774 murine macrophages and write it down. 100.0%

Find PC J774 macrophages (%) (percentage of non-specific cytotoxicity) for CN1c2nc(-c3ccccc3)[nH]c2C(N)=NS1(=O)=O [drawing 22] on J774 murine macrophages and write it down. 99.0%

Find PC J774 macrophages (%) (percentage of non-specific cytotoxicity) for NC1=NS(=O)(=O)Nc2nc(Cc3ccccc3)[nH]c21 [drawing 19] on J774 murine macrophages and write it down. 29.4%

Find PC J774 macrophages (%) (percentage of non-specific cytotoxicity) for NC1=NS(=O)(=O)Nc2nc(C3CCCCC3)[nH]c21 [drawing 20] on J774 murine macrophages and write it down. 11.5%
